- system.tested: T1, human EphA7 (Homo sapiens, UniProt Q15375)
- T1 construct: a protein of the extracellular region of each human Eph receptor fused with the SEAP protein and the His tag; made in house; host or cells: Expi293F cells (culture supernatant)
- T1 sequence (Q15375 28-555 limits assumed): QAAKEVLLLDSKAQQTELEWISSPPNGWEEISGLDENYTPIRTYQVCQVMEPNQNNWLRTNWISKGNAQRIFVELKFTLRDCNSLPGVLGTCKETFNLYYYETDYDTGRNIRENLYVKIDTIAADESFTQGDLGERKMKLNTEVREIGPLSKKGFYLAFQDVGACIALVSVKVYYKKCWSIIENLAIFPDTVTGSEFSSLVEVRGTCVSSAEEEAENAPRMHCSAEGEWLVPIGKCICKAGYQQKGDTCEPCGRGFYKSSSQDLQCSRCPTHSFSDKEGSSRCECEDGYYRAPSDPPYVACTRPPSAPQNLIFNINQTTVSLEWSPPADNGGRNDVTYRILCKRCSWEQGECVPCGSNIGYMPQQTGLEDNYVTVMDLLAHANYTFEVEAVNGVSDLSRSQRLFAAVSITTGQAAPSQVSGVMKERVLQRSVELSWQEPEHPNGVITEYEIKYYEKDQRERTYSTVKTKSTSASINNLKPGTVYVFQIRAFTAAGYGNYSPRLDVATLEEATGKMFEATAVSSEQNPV
- assay.procedure: Selectivity ELISA of humanized antibodies for human Eph receptor
- Format: binding
- experimental.parameters: coated protein 1 nM
Overview of recorded hEphA7-SEAP-: absorbance at 450 nm, percentage with respect to hEphA4-SEAP-His as 100% for various molecules
Express the result in % but write the number alone.

Before answering, review these 6 worked examples.
88 (antibody, V domains shown, constant regions without entry; synthetic humanized antibody light chain variable region sequence; synthetic humanized antibody heavy chain variable region sequence) VL: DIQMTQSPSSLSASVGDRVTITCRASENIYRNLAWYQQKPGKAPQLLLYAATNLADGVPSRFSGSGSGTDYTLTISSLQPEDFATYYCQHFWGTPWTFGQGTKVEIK VH: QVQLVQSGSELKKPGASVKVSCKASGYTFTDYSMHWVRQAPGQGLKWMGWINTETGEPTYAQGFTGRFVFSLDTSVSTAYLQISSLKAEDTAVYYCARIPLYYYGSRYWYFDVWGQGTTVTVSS ... 6.0
95 (antibody, V domains shown, constant regions without entry; synthetic humanized antibody light chain variable region sequence; synthetic humanized antibody heavy chain variable region sequence) VL: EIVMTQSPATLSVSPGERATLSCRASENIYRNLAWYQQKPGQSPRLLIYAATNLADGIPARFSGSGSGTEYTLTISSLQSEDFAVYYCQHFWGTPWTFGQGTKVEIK VH: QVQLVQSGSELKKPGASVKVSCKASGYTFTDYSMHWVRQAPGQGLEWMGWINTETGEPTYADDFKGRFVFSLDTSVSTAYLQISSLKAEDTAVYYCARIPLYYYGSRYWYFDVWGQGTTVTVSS ... 4.4
145 (antibody, V domains shown, synthetic humanized antibody heavy chain variable region sequence; synthetic humanized antibody light chain variable region sequence) VH: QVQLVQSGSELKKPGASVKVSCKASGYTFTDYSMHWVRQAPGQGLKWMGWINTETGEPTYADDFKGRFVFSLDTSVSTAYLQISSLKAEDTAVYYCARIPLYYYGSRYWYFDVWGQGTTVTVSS VL: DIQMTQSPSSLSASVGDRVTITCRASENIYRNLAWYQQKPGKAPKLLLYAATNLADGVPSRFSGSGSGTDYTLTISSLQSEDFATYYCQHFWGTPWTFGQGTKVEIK ... 6.3
154 (antibody, V domains shown, synthetic humanized antibody heavy chain variable region sequence; synthetic humanized antibody light chain variable region sequence) VH: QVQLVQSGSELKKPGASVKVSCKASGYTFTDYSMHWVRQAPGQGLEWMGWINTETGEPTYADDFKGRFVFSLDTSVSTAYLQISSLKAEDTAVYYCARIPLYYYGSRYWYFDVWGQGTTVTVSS VL: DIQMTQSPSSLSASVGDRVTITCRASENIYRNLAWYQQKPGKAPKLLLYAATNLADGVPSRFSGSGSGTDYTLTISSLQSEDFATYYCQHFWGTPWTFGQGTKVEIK ... 6.3
94 (antibody, V domains shown, constant regions without entry; synthetic humanized antibody light chain variable region sequence; synthetic humanized antibody heavy chain variable region sequence) VL: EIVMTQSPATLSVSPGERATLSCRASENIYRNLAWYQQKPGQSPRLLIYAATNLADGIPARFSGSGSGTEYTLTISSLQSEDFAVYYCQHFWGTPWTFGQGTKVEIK VH: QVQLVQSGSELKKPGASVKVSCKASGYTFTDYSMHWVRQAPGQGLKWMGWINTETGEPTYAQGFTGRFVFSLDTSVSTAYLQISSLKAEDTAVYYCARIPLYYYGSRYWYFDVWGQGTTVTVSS ... 6.1
90 (antibody, V domains shown, constant regions without entry; synthetic humanized antibody light chain variable region sequence; synthetic humanized antibody heavy chain variable region sequence) VL: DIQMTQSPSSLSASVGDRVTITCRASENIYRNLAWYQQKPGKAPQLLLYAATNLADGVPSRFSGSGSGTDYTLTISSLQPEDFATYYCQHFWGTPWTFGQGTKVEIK VH: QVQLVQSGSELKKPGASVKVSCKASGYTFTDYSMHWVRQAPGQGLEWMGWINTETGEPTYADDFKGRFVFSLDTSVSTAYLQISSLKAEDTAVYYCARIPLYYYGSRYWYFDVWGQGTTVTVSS ... 4.9

Per the records, this molecule ( 160 (antibody, V domains shown, synthetic humanized antibody heavy chain variable region sequence; synthetic humanized antibody light chain variable region sequence) VH: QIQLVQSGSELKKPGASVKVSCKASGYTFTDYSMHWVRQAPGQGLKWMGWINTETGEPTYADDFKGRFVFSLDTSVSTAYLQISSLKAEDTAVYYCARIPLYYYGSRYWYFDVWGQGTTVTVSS VL: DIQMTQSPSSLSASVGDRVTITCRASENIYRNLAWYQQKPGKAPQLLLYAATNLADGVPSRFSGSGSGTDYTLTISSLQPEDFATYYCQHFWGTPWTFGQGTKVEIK ) has hEphA7-SEAP-: absorbance at 450 nm, percentage with respect to hEphA4-SEAP-His as 100% equal to 6.1
